Source: PubChem BioAssay AID248

Test system: L1210 leukemia ip in BDF1 mice, survival T/C
Assay: NCI In Vivo Anticancer Drug Screen. Data for tumor model L1210 Leukemia (intraperitoneal) in B6D2F1 (BDF1) mice
Details: endpoint: mean survival time; dose: 200.0 mg/kg/injection; schedule: Q01DX009 (ip); vehicle: saline; higher = longer survival
Inconclusive results and toxic doses are left out. Square brackets hold non-standard residues; d marks the D form. Peptide text beside a SMILES is read from it. ξ: configuration not given here. ξV = CC(C)C(N)C(=O)O
ATTRIBUTE MEASURED: T/C

CC(C)C(NC(=O)CNC(=O)CN)C(=O)O (stereo not drawn) (H-Gly-Gly-[ξV]-OH): 102 % of control
CC(CS(=O)(=O)O)N1CCOCC1 (stereo not drawn): 98 % of control
O=C(O)CCNCc1ccccc1: 100 % of control
COCBr: 101 % of control
Cc1nn(C)c(N)c1C#N: 106 % of control
NC(=O)N1OCC(N)C1=O (stereo not drawn): 87 % of control
CC(=O)OCC(O)CO (stereo not drawn): 96 % of control

Okay, next one:
Req: Entry CCOCCC(O)CC (stereo not drawn) : reported T/C = ?
Resp: 98 % of control

* * *

// reported T/C for each item listed
Tested on: L1210 leukemia ip in BDF1 mice, survival T/C
Experiment: NCI In Vivo Anticancer Drug Screen. Data for tumor model L1210 Leukemia (intraperitoneal) in B6D2F1 (BDF1) mice
Settings: endpoint: mean survival time; dose: 25.0 mg/kg/injection; schedule: Q01DX009 (ip); vehicle: Klucel (hydroxypropylcellulose) (HPC); higher = longer survival
Inconclusive results and toxic doses are left out.

Some solved entries appear below for comparison.
COc1cc(/C=C/[N+](=O)[O-])ccc1O: 98 % of control
NNC(=O)c1ccccc1[N+](=O)[O-]: 95 % of control
OC(c1ccccc1)C(O)c1ccccc1 (stereo unspecified): 92 % of control
O=C(O)c1cc(Cl)ccn1: 98 % of control
COC1OC2COc3ccccc3OC2C(NC#N)C1OC (stereo unspecified): 102 % of control

Okay, next one:
Req: Entry "CSc1nnc(N)s1" : reported T/C = ?
Resp: 91 % of control

* * *

// reported T/C for each item listed
System: L1210 leukemia ip in BDF1 mice, survival T/C
Test: NCI In Vivo Anticancer Drug Screen. Data for tumor model L1210 Leukemia (intraperitoneal) in B6D2F1 (BDF1) mice
Details: endpoint: mean survival time; dose: 50.0 mg/kg/injection; schedule: Q01DX001 (ip); vehicle: saline; higher = longer survival
Toxic doses and inconclusive results are not listed.

Some solved entries appear below for comparison.
COc1ccc(CC(=O)C2C(=O)N(C)c3ccccc32)cc1OC (configuration not stated): 104 % of control
O=c1[nH]c(=S)[nH]c(-c2ccccc2)c1Cc1ccccc1: 100 % of control
COc1cccc(-c2ccc(N=N/C(=N/Nc3ccccc3)c3ccccc3)c(OC)c2)c1: 101 % of control
Cc1ccc(C)c(N(c2ccccc2N)S(C)(=O)=O)c1: 95 % of control
Nc1nc(N)c(C=O)c(Nc2ccc(I)cc2)n1: 100 % of control

Req: Entry "C=C(C)CCc1ccccc1" : reported T/C = ?
Resp: 102 % of control

Req: Entry "Cc1ncc(CO)c2c1OC(C)(C)OC2" : reported T/C = ?
Resp: 97 % of control

Req: Entry "Cc1cc(N)c(S)cc1C" : reported T/C = ?
Resp: 94 % of control

Req: Entry "CCCCN(CCCC)CCNc1ccc(Cl)c2oc3cc(C)ccc3c(=O)c12" : reported T/C = ?
Resp: 93 % of control

Req: Entry "Cc1cc(C)c(O)c(CN(C)C)c1.[Cu+2]" : reported T/C = ?
Resp: 98 % of control

Req: Entry "O=S1(=O)CC(O)C1" : reported T/C = ?
Resp: 91 % of control

Req: Entry "O=C(O)CCCl" : reported T/C = ?
Resp: 90 % of control
